Experiment: protein stability index of a GFP-peptide fusion (yeast GPS) (PSI 1-4); higher = more stable; sorted into four equal gates, so the index is relative within each strain
Settings: pdr5∆
Please enter Satisfied where protein stability index is greater than or equal to 3, and Not satisfied where it is lower.

Some entries whose results are on file:
YVIHGIELLSDLINILE [LIN1] | Not satisfied
LATYCPRVQGFYVPQAR [GRR1] | Not satisfied
RRILPKPSRTSRQVQKR [RPS7A] | Satisfied
YVNDVAIYNNPTRIRTK [RRI2] | Not satisfied
PSLLLQKDQDGRIPLHW [NAS6] | Satisfied
KDTIVKEAEDKTLVALE [RPC37] | Satisfied
DTYKRFKYLLGVTDLFR [ISW2] | Not satisfied
GENNINFQKASATLDGC [BRN1] | Satisfied
GDYGEEEDADQEESFSL [SRB8] | Satisfied
FDRHCNMVLENVKELWT [SMD2] | Not satisfied

(Q) Could you verify whether the entry NNGNNSTSIQYHGISKN [POP6] shows protein stability index of no less than 3?
(A) Not satisfied

(Q) Could you verify whether the entry GCENPADVFRRCLVAVI [SRP72] shows protein stability index of no less than 3?
(A) Not satisfied

(Q) Could you verify whether the entry LNFSTTAPANTTDANGS [MED2] shows protein stability index of no less than 3?
(A) Not satisfied

(Q) Could you verify whether the entry SASHILIPASDLSWSKQ [PRP8] shows protein stability index of no less than 3?
(A) Not satisfied

* * *

Experiment: protein stability index of a GFP-peptide fusion (yeast GPS) (PSI 1-4); higher = more stable; sorted into four equal gates, so the index is relative within each strain
Conditions: pdr5∆
What protein stability index was measured for each of the following?

Record excerpt, results attached:
MSGRGKGGKGLGKGGAK [HHF1] | 3.56
NAQDIDHFLSMCQNPMQ [FAS1] | 2.84
EKLKQFSWISVVNDLVG [SIR3] | 1.99

For each listed entry, give its protein stability index.
1. DGDASKPAFSFGAKPDE [YJL041W/NSP1]
2. KNIPKTRYNRDYMLSMA [SNU114]

(A)
3.25
2.4

For each listed entry, give its protein stability index.
1. PNIRTMSGTTKRLNGKR [SSN2]
2. NDIFERIATEASKLAAY [HTB1]
3. HVVGRIAEVGNKRWKVD [RRP4]
4. ATASAIAATAVASLVLA [RPL4A]
5. ILSQQFDKIIKIREDHI [SRB8]
6. VTVHSLTGEATANALPL [RPL4A]
7. AFGGLNFGGGNNTTPSS [YJL041W/NSP1]
8. FQAVIQKSINHPPDFKR [SNF2]

(A)
1: 2.74; 2: 1.34; 3: 3; 4: 1.78; 5: 3.05; 6: 2.76; 7: 1.29; 8: 2.98

(Q) Name the recorded protein stability index for PHTPVTRKGYIPSSKYA [YLR018C/POM34] .
(A) 3.18

* * *

Assay: protein stability index of a GFP-peptide fusion (yeast GPS) (PSI 1-4); higher = more stable; sorted into four equal gates, so the index is relative within each strain
Details: doa10∆
METRIC: protein stability index
Give bare numbers.

MYGLTMEWPKDMLKYKE [ITC1] | 3.53

For each listed entry, give its protein stability index.
1. GSQILSGVMDKSVLGDG [RPO31]
2. DALRRGMLAMASLHSKE [MED4]
3. NNSNSNNNDNNNSNTVA [SWI1]
4. QGITRNVVNYLSINKNF [RPC17]
5. SLIIDQQENSKSGKRKP [RPC31]
6. SDWNPQADLQAMDRAHR [ISW2]
7. KSSFVKESAVISKQKSK [SMC1]

(A)
1. 3.49
2. 1.87
3. 2.95
4. 1.31
5. 2.71
6. 2.93
7. 2.18

For each listed entry, give its protein stability index.
1. WAVTLDTSRPDLEWQEL [DSN1]
2. LKETVIPSLANNGNNST [POP6]
3. AISQSLRDESLTVDNLS [PRE5]
4. ITKVTENLFSKEEVCQG [YMR129W/POM152]
5. ARQQVAQQLRNQQQQQQ [GAL11]
6. TGLLIARRTLQKLGLDE [RPL5]
7. ATKDNELNVKHVKQCQE [SMC2]

(A)
1. 3.35
2. 2.41
3. 2.96
4. 2.95
5. 2.73
6. 3.2
7. 2.96

For each listed entry, give its protein stability index.
1. MEKLDAKLNHLKKLEKF [SWI3]
2. LNLDEIVACELILSGDT [YJL039C/NUP192]
3. VDASPNDVTRRTVKNIL [CSL4]

(A)
1. 2.81
2. 2.64
3. 3.19

For each listed entry, give its protein stability index.
1. KNNSSIRNVIMSASNAN [SRB8]
2. IIESHLIQLQNIFKAEM [CSN9]

(A)
1. 1.59
2. 2.75
